The entries below come with measured %Inh values attached.
- System: LOK
- Construct: gene STK10
- Applied Conditions: concentration: 1 μM, replicates: in singlicate; n = 1;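 note: KINOMEscan kinase panel screen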
Response body: numeric value in %, unit text excluded.

Here are 3 molecules together with their reported answers.
>>> result_number("CCc1ccc(-c2ccc3c(c2)-c2n[nH]cc2S(=O)(=O)N3C)cc1")
3
>>> result_number("FC(F)(F)c1ccccc1-c1cc(-c2c[nH]nc2-c2ccccn2)ccn1")
0
>>> result_number("Nc1cccc(-c2ccc3c(N)n[nH]c3c2)n1")
0

stdin: %Inh lookup needed for Nc1ncnc2occ(-c3ccc4c(c3)CCN4C(=O)Cc3cc(F)ccc3F)c12 , thanks.
stdout: 33

stdin: Repeat for the following molecule: CC(C)c1cc(-c2ccc3c(N)n[nH]c3c2)nc(N)n1
stdout: 0

----------
- Test system: VPS34
- Construct: gene PIK3C3
- Applied Conditions: concentration: 1 μM, replicates: in singlicate; n = 1
The entries below come with measured %Inh values attached.
Response body: numeric value in %, unit text excluded.

Here are 5 compounds together with their reported answers.
>>> result_number("COc1ccc(Nc2nccc(-c3ccc(NC(=O)c4cc5cc(F)ccc5[nH]4)cc3)n2)cc1")
2
>>> result_number("Cc1ccc(NC(=O)Nc2ccc(Cl)c(C(F)(F)F)c2)cc1-c1ccc(C(=O)Nc2ccncc2)cc1")
0
>>> result_number("Fc1ccc(-c2nc3n(c2-c2ccncc2)CCS3)cc1")
21
>>> result_number("COc1ccc(CSc2nnc(-c3ccc4nccn4c3)o2)cc1C(F)(F)F")
7
>>> result_number("Nc1cccc(-c2ccc3c(N)n[nH]c3c2)n1")
1

stdin: %Inh lookup needed for Nc1ncnc2occ(-c3ccc4c(c3)CCN4C(=O)Cc3cc(F)ccc3F)c12 , thanks.
stdout: 0

stdin: Repeat for the following compound: O=C(Nc1n[nH]c2nc(-c3cccs3)c(Br)cc12)C1CCCC1
stdout: 0

stdin: Repeat for the following compound: COc1nccc(-c2c(-c3ccc(F)cc3)ncn2CCCN2CCOCC2)n1
stdout: 21

stdin: Repeat for the following compound: Cc1ccccc1-c1cc(-c2c[nH]nc2-c2ccccn2)ccn1
stdout: 0

----------
- Test system: DLK
- Construct: gene MAP3K12
- Applied Conditions: concentration: 1 μM, replicates: in singlicate; n = 1
The entries below come with measured %Inh values attached.
Response body: numeric value in %, unit text excluded.

Here are 5 molecules together with their reported answers.
>>> result_number("Fc1ccc(-c2nn3cccc(F)c3c2-c2ccncc2)cc1 [GW475620]")
15
>>> result_number("O=C1NC(=O)C(c2ccc(Cl)cc2)=C1Nc1cccc(Cl)c1 [SB-317651]")
16
>>> result_number("COc1ccc(CSc2nnc(-c3ccc4ncsc4c3)o2)cc1C(F)(F)F")
0
>>> result_number("COC(=O)C(NC(=O)NC1CCN(c2ccnc(Nc3ccc(F)cc3)n2)C1)c1ccccc1 (stereo not shown) [GSK1379712]")
0
>>> result_number("O=C(Nc1n[nH]c2nc(-c3cccs3)c(Br)cc12)C1CC1 [SB-735297]")
0

stdin: %Inh lookup needed for Cc1ccccc1-c1cc(-c2c[nH]nc2-c2ccccn2)ccn1 [GW680061] , thanks.
stdout: 32

stdin: Repeat for the following molecule: CSc1ccc(-c2nc3n(c2-c2ccncc2)CCC3)cc1 [SKF-105561]
stdout: 0

stdin: Repeat for the following molecule: Cl.Cl.Cl.N#Cc1ccc(CCNc2nccc(-c3cccc(CN4CCNCC4)c3)n2)cc1 [GSK2137462]
stdout: 0

stdin: Repeat for the following molecule: COc1ccc2cc(-c3nc(-c4ccccc4C(C)C)[nH]c3-c3ccncc3)ccc2c1 [SB-660566]
stdout: 18

stdin: Repeat for the following molecule: Fc1ccc(-c2nc3n(c2-c2ccncc2)CCS3)cc1 [GI98581]
stdout: 26

stdin: Repeat for the following molecule: Cc1ccc(-c2nc(Nc3ccncc3)c3ccccc3n2)s1 [GSK189015]
stdout: 0

stdin: Repeat for the following molecule: Cc1ccc(NC(=O)Nc2ccc(Cl)cc2)cc1-c1ccc(C(=O)Nc2ccncc2)cc1 [GSK1398472]
stdout: 0

stdin: Repeat for the following molecule: CC(C)c1ccc(O)cc1Nc1ccnc2ccc(C(F)(F)F)cc12 [GW482059]
stdout: 17

stdin: Repeat for the following molecule: CS(=O)(=O)Cc1ccc(Nc2nccc(-c3c(-c4cccc(NC(=O)C5CCCCC5)c4)nn4ncccc34)n2)cc1 [GSK350559]
stdout: 41

stdin: Repeat for the following molecule: COc1ccc(Nc2nccc(N3CCC(NC(=O)C(C)c4ccc(Cl)cc4)C3)n2)cc1 (stereo not shown) [GSK1379735]
stdout: 13

stdin: Repeat for the following molecule: O=C(Nc1n[nH]c2nc(-c3ccco3)c(Br)cc12)C1CCN(Cc2ccccc2)C1.O=C(O)[C@H](O)[C@@H](O)C(=O)O (stereo not shown) [SB-742034]
stdout: 0
